Value source: patent US20240150342A1

- test-target: ERRα ligand binding domain (ERRα-LBD) (Homo sapiens, UniProt P11474)
- Construct: made in house; host or cells: E. coli
- Sequence (P11474 193-421 limits assumed): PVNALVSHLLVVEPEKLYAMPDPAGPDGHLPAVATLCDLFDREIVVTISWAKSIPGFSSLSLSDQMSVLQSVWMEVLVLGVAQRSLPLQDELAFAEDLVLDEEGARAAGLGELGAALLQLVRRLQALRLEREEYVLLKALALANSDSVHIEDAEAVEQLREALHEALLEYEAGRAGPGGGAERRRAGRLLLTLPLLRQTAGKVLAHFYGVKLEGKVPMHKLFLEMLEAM
- measurement-notes: ERRα AlphaScreen Assay
- Type: biochemical
- study-conditions: disruption of binding of ERRα-LBD protein to biotin-PGC1α-3 co-activator peptide; read-out: mean pIC50 (converted)
measured-attribute: IC50

> print(dat)
                                   compound  measured.attribute    assay.result
1  COc1cc(-c2cc(=O)[nH]c3n[nH]cc23)ccc1Oc1ccc(C)cc1C(C)(C)C                IC50         ≤ 10 nM
2  COc1cc(C2CC(=O)Nc3n[nH]cc32)ccc1Oc1cccc(C(C)(C)C)c1 (centres unmarked)                IC50    10 to 100 nM
3  COc1cc(C2CC(=O)Nc3n[nH]cc32)ccc1Oc1cc(C(F)F)cc(C(F)(F)F)c1 (centres unmarked) [Example 77]                IC50    10 to 100 nM
4  Cc1cc(C2CC(=O)Nc3n[nH]cc32)ccc1Oc1ccc(C#N)cc1C(C)(C)C (centres unmarked)                IC50    10 to 100 nM
5  COc1cc(C2CC(=O)Nc3n[nH]cc32)ccc1Oc1ccccc1S(F)(F)(F)(F)F (centres unmarked)                IC50    10 to 100 nM
6  COc1cc(C2CC(=O)Nc3n[nH]cc32)ccc1Oc1cccc(C)c1 (centres unmarked)                IC50  100 to 1000 nM
7  COc1cc(Oc2ccc(C3CC(=O)Nc4n[nH]cc43)cc2Br)cc(C(F)(F)F)c1 (centres unmarked)                IC50    10 to 100 nM
8  CCCc1ccccc1Oc1ccc(C2CC(=O)Nc3n[nH]cc32)cc1OC (centres unmarked)                IC50  100 to 1000 nM
